Measured values drawn from ChEMBL document CHEMBL3272282 for this set.

Listed compounds paired with reported Ratio
- ASSAY: Intrinsic activity at beta-adrenoceptor in guinea pig atria assessed as cardiac stimulant activity by measuring change in rate of contraction of right atrial muscle relative to isoproterenol
- Assay type: ADME, tissue-based, Cavia porcellus, Cardiac atrium

- COMPOUND: "CC(C)(C)NCC(O)c1ccc(O)c(O)c1 (centres undefined)"
  Ratio: 1
- COMPOUND: "CC(O)c1cc(C(O)CNC(C)(C)C)ccc1O (centres undefined)"
  Ratio: 0.3
- COMPOUND: "CC(C)(C)NCC(O)c1ccc(O)c(C(O)CO)c1 (centres undefined)"
  Ratio: 0.3
- COMPOUND: "CC(C)(C)NCC(O)c1ccc(O)c(CO)c1 (centres undefined)"
  Ratio: 0.7
